Cited source: patent US20150210740A1

Target: E. coli RNAP (Escherichia coli, UniProt P0A8T7+P0A8V2)
Construct: an RNAP purified from either Escherichia coli (Sigma Aldrich) or Bacillus subtilis
Sequence (P0A7Z4 whole entry): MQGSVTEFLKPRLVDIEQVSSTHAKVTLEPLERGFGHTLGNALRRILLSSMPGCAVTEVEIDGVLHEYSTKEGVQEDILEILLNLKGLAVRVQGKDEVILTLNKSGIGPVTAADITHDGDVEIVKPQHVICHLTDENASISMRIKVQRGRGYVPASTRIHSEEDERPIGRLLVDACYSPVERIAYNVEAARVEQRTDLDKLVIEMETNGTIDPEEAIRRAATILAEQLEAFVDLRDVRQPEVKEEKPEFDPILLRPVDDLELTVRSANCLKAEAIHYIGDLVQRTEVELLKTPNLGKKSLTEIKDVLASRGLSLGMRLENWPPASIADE
Sequence (P0A800 whole entry, further chain): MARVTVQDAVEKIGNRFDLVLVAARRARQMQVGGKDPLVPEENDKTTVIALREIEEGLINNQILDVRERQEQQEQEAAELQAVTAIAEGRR
Sequence (P0A8V2 whole entry): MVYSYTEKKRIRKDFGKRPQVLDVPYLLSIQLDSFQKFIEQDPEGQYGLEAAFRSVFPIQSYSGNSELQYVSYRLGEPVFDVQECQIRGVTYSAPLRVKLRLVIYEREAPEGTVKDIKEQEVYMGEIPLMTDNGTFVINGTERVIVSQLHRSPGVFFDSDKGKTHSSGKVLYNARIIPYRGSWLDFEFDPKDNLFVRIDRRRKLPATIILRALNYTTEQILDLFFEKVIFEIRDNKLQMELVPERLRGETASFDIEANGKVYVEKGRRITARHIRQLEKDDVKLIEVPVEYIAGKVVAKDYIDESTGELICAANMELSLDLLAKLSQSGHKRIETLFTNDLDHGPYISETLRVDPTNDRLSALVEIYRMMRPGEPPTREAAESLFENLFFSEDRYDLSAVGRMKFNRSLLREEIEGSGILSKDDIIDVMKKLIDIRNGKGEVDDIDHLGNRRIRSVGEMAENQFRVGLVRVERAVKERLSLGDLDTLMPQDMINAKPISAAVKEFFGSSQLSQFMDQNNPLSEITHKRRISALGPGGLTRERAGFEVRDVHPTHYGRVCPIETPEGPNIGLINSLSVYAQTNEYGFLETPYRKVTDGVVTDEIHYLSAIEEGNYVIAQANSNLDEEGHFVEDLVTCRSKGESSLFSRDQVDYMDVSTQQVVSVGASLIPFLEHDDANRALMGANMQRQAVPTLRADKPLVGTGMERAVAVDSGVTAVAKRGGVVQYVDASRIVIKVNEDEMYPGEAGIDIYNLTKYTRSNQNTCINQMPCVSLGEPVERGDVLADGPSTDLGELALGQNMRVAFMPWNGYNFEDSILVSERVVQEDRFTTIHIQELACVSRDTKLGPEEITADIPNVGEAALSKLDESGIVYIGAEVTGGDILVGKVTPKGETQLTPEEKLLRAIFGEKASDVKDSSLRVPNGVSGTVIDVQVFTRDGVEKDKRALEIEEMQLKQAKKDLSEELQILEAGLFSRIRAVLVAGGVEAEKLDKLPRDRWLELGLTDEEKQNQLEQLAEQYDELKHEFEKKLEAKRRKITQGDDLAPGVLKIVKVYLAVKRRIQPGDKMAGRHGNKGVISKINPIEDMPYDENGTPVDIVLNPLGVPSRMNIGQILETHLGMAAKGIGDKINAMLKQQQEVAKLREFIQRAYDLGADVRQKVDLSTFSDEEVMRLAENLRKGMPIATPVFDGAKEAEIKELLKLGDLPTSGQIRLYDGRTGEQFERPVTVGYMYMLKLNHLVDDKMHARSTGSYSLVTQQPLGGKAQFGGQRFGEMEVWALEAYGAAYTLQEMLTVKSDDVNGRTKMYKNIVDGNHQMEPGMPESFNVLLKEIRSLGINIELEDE
Sequence (P0A8T7 whole entry): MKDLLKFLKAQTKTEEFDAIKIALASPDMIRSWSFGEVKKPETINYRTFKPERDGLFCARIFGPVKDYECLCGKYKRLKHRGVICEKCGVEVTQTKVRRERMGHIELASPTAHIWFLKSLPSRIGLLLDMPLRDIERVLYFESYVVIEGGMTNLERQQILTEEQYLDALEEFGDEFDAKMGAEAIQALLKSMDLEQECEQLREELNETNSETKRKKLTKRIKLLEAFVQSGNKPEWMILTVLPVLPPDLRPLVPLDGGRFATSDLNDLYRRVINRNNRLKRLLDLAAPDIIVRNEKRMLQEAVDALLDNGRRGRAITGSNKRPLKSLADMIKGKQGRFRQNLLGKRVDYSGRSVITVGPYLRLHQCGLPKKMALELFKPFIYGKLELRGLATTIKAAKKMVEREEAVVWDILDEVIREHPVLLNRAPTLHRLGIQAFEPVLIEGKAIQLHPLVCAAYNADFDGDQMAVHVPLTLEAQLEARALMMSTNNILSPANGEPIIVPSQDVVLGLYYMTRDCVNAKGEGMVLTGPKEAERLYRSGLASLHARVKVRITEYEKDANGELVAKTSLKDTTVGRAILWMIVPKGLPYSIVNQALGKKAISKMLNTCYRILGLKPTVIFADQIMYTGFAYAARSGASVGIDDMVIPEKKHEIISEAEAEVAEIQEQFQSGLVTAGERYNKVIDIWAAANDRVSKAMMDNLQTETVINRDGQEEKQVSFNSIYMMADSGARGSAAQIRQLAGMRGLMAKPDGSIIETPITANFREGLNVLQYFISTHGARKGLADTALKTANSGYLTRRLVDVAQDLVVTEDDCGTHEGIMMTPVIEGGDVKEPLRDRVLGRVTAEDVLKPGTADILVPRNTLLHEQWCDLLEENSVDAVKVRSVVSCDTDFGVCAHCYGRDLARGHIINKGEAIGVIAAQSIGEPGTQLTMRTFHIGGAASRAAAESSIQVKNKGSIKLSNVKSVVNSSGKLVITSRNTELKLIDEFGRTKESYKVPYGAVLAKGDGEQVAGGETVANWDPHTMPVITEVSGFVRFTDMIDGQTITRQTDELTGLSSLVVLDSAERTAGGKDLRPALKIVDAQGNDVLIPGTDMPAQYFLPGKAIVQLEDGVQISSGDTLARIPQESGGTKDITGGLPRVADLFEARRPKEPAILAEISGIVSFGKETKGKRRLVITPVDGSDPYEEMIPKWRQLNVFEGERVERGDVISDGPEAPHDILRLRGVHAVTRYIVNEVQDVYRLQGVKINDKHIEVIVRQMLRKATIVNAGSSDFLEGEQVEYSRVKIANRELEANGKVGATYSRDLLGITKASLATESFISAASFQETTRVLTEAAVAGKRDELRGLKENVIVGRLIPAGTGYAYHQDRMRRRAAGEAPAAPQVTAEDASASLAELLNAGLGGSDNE
Experiment: RNAP inhibition, E. coli RNAP
outcome-measure: IC50

| compound | IC50 |
| --- | --- |
| CCc1c(Cl)c(O)c(Cl)c(O)c1C(=O)O[C@H]1[C@H](O)[C@H](OC)[C@H](OC/C2=C\C=C\C[C@H](O)/C(C)=C/[C@H](CC)[C@@H](O[C@@H]3OC(C)(C)[C@@H](OC(=O)C(C)C)[C@H](O)[C@@H]3O)/C(C)=C/C(C)=C/C[C@@H]([C@@H](C)O)OC2=O)O[C@@H]1C [Fdx, fidaxomicin, reference compound] | 5500 nM |
| CO[C@H]1/C=C/O[C@@]2(C)Oc3c(C)c(O)c4c(O)c(c(/C=N/N5CCN(C)CC5)c(O)c4c3C2=O)NC(=O)/C(C)=C\C=C\[C@H](C)[C@H](O)[C@@H](C)[C@@H](O)[C@@H](C)[C@H](OC(C)=O)[C@@H]1C [Rif, rifampicin, reference compound] | 60 nM |

Now for another entry.
// recorded IC50 for `N=C(N)NCC(=O)N(O)[C@@H](CCC(N)=O)C(=O)NC[C@H]1O[C@@H](c2c[nH]c(=O)[nH]c2=O)[C@H](O)[C@@H]1O` : 300 nM
